Target chain: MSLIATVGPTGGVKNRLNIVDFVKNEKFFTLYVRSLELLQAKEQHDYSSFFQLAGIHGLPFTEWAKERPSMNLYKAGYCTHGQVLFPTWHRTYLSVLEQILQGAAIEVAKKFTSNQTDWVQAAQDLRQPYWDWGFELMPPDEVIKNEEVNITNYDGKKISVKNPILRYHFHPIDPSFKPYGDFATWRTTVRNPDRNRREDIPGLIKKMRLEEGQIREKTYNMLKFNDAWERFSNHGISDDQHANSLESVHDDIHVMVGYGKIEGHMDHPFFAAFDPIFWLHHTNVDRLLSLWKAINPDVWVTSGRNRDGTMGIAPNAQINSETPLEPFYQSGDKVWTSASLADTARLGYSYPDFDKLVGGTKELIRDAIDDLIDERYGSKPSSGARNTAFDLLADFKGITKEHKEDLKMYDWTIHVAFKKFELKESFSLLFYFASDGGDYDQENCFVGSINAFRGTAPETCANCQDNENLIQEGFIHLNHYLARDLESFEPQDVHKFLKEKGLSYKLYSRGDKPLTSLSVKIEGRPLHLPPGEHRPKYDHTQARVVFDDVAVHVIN
pIC50: −log10 of the molar value.
experimental.readout: pIC50

Examples with their reported pIC50 follow.
| smi | pIC50 |
| --- | --- |
| NC(=S)N/N=C/c1ccco1 | 5.22 |
| NC(=S)N/N=C/c1ccccc1F | 4.49 |
| NC(=S)N/N=C/c1cccc2ccccc12 | 4.92 |
| NC(=S)N/N=C/c1ccc2ccccc2n1 | 4.15 |

[P] N/C(S)=N/N=C/c1ccccn1
[Q] NC(=S)N/N=C/c1cc(=O)c(O)co1
[R] NC(=S)N/N=C/CCc1ccccc1
Exercise: Arrange these 3 compounds in increasing order of pIC50. # answer = labels listed in requested order
Solution: R, P, Q
(R: 3.40, P: 4.35, Q: 4.96)

* * *

test.protocol: Dissociation constant, pKa of the compound
Type: physicochemical
experimental.readout: pKa

[1] NC(=S)N/N=C/c1ccc[nH]1
[2] N/C(S)=N/N=C/c1ccccn1
Exercise: Sorting ascending by pKa, which comes first: 1 or 2 ? Provide the label of your selected option as the answer.
Solution: 1
(1: 0.5, 2: 5)

* * *

Target protein (sequence): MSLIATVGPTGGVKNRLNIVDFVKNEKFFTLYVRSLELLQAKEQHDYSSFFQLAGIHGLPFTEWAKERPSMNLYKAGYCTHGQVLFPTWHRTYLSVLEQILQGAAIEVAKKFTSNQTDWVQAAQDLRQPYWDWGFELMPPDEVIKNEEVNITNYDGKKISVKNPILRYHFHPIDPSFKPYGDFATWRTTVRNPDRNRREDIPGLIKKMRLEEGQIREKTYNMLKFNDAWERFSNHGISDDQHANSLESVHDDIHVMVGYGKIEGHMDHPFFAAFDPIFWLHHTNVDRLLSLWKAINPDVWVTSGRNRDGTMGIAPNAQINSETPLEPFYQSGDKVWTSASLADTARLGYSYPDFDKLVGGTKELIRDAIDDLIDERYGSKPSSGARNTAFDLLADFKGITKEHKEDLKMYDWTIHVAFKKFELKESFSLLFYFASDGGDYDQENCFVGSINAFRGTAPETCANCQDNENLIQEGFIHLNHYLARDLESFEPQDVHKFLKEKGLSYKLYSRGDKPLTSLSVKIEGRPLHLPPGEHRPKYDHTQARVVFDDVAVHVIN
Measured IC50 of individual entries

Here is how some molecules turned out for IC50.
| smi | IC50 |
| --- | --- |
| NC(=S)N/N=C/c1ccc2[nH]ccc2c1 | > 2000 µM |
| COc1coc(/C=N/NC(N)=S)cc1=O | > 2000 µM |
| Cc1[nH]c2ccccc2c1/C=N/NC(N)=S | > 2000 µM |

Kindly review the next molecule as well.
Exercise: Hello, please tell me recorded IC50 for this one: "Cn1cc(/C=N/NC(N)=S)c2ccccc21"
Solution: > 2000 µM
